# target-or-system: Protein farnesyltransferase (Mus musculus, UniProt Q61239+Q8K2I1)
# procedure-text: Inhibition of farnesyl transferase in NIH3T3 cell based assay in non-reducing (-DTT) conditions
# Type: functional
readout-type: IC50

Solved entries (count: 3):
COC(=O)[C@H](CCSC)NC(=O)[C@@H]1Cc2ccccc2CN1C(=O)CN(CCSSCCN(CC(=O)N1Cc2ccccc2C[C@H]1C(=O)N[C@@H](CCSC)C(=O)OC)C(=O)OC(C)(C)C)C(=O)OC(C)(C)C | > 1000 µM
COC(=O)[C@H](CCSC)NC(=O)[C@@H]1Cc2ccccc2CN1C(=O)CNCCSSCCNCC(=O)N1Cc2ccccc2C[C@H]1C(=O)N[C@@H](CCSC)C(=O)OC | 100 µM
CSCC[C@H](NC(=O)[C@@H]1Cc2ccccc2CN1C(=O)CN(CCSSCCN(CC(=O)N1Cc2ccccc2C[C@H]1C(=O)N[C@@H](CCSC)C(=O)O)C(=O)OC(C)(C)C)C(=O)OC(C)(C)C)C(=O)O | > 1000 µM

For the next question, use this compound.
-- ask Entry under review: CSCC[C@H](NC(=O)[C@@H]1Cc2ccccc2CN1C(=O)CNCCSSCCNCC(=O)N1Cc2ccccc2C[C@H]1C(=O)N[C@@H](CCSC)C(=O)O)C(=O)O . Reported IC50?
-- reply > 1000 µM

Entry source: ChEMBL document CHEMBL1151032
